From: patent US20240382474A1

testedOn: human ENPP1 enzymatic domain (Homo sapiens)
Construct: recombinant protein containing the human ENPP1 enzymatic domain
Sequence (P22413 191-591 limits assumed): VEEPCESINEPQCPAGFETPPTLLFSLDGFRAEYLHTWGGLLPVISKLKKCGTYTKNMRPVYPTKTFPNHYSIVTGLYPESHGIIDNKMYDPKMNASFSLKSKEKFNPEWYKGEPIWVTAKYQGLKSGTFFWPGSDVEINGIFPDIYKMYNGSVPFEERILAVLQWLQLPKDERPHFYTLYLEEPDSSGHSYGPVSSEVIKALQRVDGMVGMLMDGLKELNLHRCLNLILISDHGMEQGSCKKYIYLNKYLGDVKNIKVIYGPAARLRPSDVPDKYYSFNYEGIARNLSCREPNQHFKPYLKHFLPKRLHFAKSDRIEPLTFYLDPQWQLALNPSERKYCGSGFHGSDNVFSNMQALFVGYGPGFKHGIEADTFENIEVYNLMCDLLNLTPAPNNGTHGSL
experimentDescription: ENPP1 Enzymatic Inhibition Assay (2′3′-cGAMP substrate, AMP-Glo luminescence)
appliedConditions: 1 nM ENPP1, 20 uM 2′3′-cGAMP, 30 minutes at 37° C.
Measured IC50 accompanies every entry in the list below.
measurementLabel: IC50

molecule="COc1ccc2c(Oc3ccc([S@](=N)(=O)NCC(C)(C)O)cc3)ccnc2c1 [Compound 9]" valuemeasured="10 to 100 nM"
molecule="COc1ccc2c(Nc3ccc([S@](=N)(=O)NC[C@H](C)O)c(F)c3)ccnc2c1 [Compound 47]" valuemeasured="< 10 nM"
molecule="COc1ccc2c(Nc3ccc([S@@](=N)(=O)NCCO)cc3)ccnc2c1 [Compound 54]" valuemeasured="< 10 nM"
molecule="COc1ccc2c(Oc3ccc([S@@](=N)(=O)NCC(C)(C)O)cc3)ccnc2c1 [Compound 10]" valuemeasured="< 10 nM"
molecule="COc1ccc2c(Nc3ccc([S@@](=N)(=O)N[C@H](C)CO)cc3)ccnc2c1 [Compound 36]" valuemeasured="< 10 nM"
molecule="COc1cccc2c(Nc3ccc([S@](=N)(=O)NC[C@@H](C)O)cc3)ncnc12 [Compound 61]" valuemeasured="> 100 nM"
molecule="COc1cccc2c(Nc3ccc([S@@](=N)(=O)NCCO)cc3)ccnc12 [Compound 58]" valuemeasured="< 10 nM"
molecule="COc1ccc2c(Oc3ccc([S@](=N)(=O)N[C@H](C)c4ccnn4C)cc3)ccnc2c1 [Compound 27]" valuemeasured="10 to 100 nM"

----------
testedOn: human ENPP1 enzymatic domain (Homo sapiens)
Construct: recombinant protein containing the human ENPP1 enzymatic domain
experimentDescription: ENPP1 Enzymatic Inhibition Assay (2′3′-cGAMP substrate, AMP-Glo luminescence)
appliedConditions: 1 nM ENPP1, 20 uM 2′3′-cGAMP, 30 minutes at 37° C.
pIC50: −log10 of the molar value.
Measured pIC50 accompanies every entry in the list below.
measurementLabel: pIC50

molecule="COc1ccc2c(Nc3ccc([S@@](=N)(=O)NCC4CC4)cc3)ccnc2c1 [Compound 20]" measurementlabel=pIC50 valuemeasured="> 8.00"
molecule="COc1ccc2c(Oc3ccc([S@](=N)(=O)NC[C@H](O)CO)cc3)ccnc2c1 [Compound 33]" measurementlabel=pIC50 valuemeasured="7.00 to 8.00"
molecule="COc1ccc2c(Nc3ccc([S@](=N)(=O)NCC4CC4)cc3)ccnc2c1 [Compound 19]" measurementlabel=pIC50 valuemeasured="> 8.00"
molecule="N=[S@](=O)(NCC1CC1)c1ccc(Nc2ccnc3cc(OC(F)F)ccc23)cc1 [Compound 22]" measurementlabel=pIC50 valuemeasured="> 8.00"
molecule="COc1cccc2c(Nc3ccc([S@@](=N)(=O)NC[C@@H](C)O)cc3)ncnc12 [Compound 62]" measurementlabel=pIC50 valuemeasured="7.00 to 8.00"
molecule="COc1ccc2c(Oc3ccc([S@](=N)(=O)NC(C)c4ccn(C)n4)cc3)ccnc2c1 (some centres unmarked) [Compound 29]" measurementlabel=pIC50 valuemeasured="> 8.00"
molecule="COc1ccc2c(Oc3ccc([S@](=N)(=O)NCCO)cc3)ccnc2c1 [Compound 3]" measurementlabel=pIC50 valuemeasured="7.00 to 8.00"
molecule="COc1ccc2c(Nc3ccc([S@@](=N)(=O)NC[C@H](O)C(C)(C)C)cc3)ccnc2c1 [Compound 60]" measurementlabel=pIC50 valuemeasured="> 8.00"
